Target: T1, TNFR1 (Homo sapiens, UniProt P19438)
T1 chain: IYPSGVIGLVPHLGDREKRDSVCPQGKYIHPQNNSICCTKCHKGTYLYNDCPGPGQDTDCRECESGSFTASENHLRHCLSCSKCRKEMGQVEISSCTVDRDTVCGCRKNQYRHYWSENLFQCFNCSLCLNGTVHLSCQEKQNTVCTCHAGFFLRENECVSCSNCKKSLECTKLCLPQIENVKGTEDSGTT
Assay: yeast display SC50
observation type: apparent Kd (screen) (nM)
Report the value in nM with no unit label.

Illustrative cases are given below, each with its answer.
>  <binder>
A36G (designed binder) SMEEEVEKAAKEYEKKKKEAIEKHLEKLKAKDKEAGERFLKELEEAAKEYAKDEAKTMSEEEAKRRAKKYKEKVLLSELSEEEQKEIKEAEEKLVRTILKYVEEAAK

>  <measured number>
0.446

$$$$
>  <binder>
M58N (designed binder) SMEEEVEKAAKEYEKKKKEAIEKHLEKLKAKDKEAAERFLKELEEAAKEYAKDEAKTNSEEEAKRRAKKYKEKVLLSELSEEEQKEIKEAEEKLVRTILKYVEEAAK

>  <measured number>
13.8

$$$$
>  <binder>
Y13M (designed binder) SMEEEVEKAAKEMEKKKKEAIEKHLEKLKAKDKEAAERFLKELEEAAKEYAKDEAKTMSEEEAKRRAKKYKEKVLLSELSEEEQKEIKEAEEKLVRTILKYVEEAAK

>  <measured number>
0.593

$$$$

In the following, a different binder is considered.
Query K29D (designed binder) SMEEEVEKAAKEYEKKKKEAIEKHLEKLDAKDKEAAERFLKELEEAAKEYAKDEAKTMSEEEAKRRAKKYKEKVLLSELSEEEQKEIKEAEEKLVRTILKYVEEAAK yields apparent Kd (screen) of 0.49
